tested.system: NR1/NR2B (Homo sapiens (Human), UniProt Q05586+Q13224)
Sequence (Q13224 27-1484, other chains not shown): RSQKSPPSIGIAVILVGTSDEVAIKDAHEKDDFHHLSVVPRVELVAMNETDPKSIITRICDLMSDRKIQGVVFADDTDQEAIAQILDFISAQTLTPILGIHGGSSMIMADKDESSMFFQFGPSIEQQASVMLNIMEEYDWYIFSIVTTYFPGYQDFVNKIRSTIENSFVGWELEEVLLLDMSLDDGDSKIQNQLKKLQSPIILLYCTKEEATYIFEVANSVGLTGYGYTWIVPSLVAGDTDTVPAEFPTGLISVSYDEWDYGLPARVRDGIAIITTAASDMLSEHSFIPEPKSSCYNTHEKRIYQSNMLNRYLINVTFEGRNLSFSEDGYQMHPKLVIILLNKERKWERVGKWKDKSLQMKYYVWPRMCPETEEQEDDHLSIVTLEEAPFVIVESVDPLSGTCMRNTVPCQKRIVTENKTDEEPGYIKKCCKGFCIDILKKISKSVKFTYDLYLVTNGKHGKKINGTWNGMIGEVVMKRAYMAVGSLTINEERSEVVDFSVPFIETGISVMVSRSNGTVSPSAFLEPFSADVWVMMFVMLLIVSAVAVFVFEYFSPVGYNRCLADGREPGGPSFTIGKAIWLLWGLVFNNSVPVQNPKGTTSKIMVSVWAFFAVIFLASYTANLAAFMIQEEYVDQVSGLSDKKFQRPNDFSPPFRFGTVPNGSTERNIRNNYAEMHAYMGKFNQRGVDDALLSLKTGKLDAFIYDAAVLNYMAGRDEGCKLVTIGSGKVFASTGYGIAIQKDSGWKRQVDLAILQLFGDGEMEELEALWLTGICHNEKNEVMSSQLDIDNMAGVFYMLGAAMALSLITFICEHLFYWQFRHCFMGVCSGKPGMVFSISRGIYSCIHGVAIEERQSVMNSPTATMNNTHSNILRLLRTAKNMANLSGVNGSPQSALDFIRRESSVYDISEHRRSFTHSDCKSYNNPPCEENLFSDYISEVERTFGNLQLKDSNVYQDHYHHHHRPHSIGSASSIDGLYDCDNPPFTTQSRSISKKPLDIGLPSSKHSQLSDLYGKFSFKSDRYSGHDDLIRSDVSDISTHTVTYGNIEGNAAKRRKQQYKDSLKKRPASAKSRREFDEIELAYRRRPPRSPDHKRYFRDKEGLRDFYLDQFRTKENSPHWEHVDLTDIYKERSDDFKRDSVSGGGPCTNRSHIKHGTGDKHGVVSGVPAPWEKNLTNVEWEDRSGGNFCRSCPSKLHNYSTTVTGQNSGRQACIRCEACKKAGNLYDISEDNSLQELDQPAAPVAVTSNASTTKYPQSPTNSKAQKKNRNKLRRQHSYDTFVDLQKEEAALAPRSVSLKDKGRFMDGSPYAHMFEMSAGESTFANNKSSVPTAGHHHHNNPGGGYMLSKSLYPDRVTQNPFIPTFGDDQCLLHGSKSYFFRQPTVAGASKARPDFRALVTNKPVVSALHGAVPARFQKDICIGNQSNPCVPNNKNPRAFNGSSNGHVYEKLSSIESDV
protocol.notes: Cell assay: FDSS Ca2+ influx inhibition in HEK293 cells expressing NR1/NR2B
study.conditions: NR2B NAM IC50, HEK293 cells expressing NR1/NR2B, Ca2+ influx
pIC50: −log10 of the molar value.

- molecule: "Oc1ccc(C(O)CN2C[C@@H]3C[C@@](O)(Cc4c(F)cccc4F)C[C@@H]3C2)nc1 (mixture of isomers)"
  value.operator: "="
  pIC50: 7.16
- molecule: "OC(CN1C[C@@H]2C[C@@](O)(Cc3ccccc3)C[C@@H]2C1)c1cccc(C(F)(F)F)c1 (mixture of isomers)"
  value.operator: "≤"
  pIC50: 5.00
- molecule: "CC(C(=O)c1ccc(O)cc1)N1C[C@@H]2C[C@](F)(Cc3ccccc3)C[C@@H]2C1 (mixture of isomers)"
  value.operator: "="
  pIC50: 6.55
- molecule: "OC(CN1C[C@@H]2C[C@@](O)(Cc3ccccc3)C[C@@H]2C1)c1cnc(OCc2ccccc2)cn1 (mixture of isomers)"
  value.operator: "≤"
  pIC50: 5.00
- molecule: "CC(C(=O)c1ccc(O)cc1)N1C[C@@H]2C[C@@](O)(CCc3ccccc3)C[C@@H]2C1 (mixture of isomers)"
  value.operator: "="
  pIC50: 6.30
- molecule: "COc1cccc(C[C@]2(O)C[C@H]3CN(CC(O)c4ccc(O)cc4)C[C@H]3C2)c1 (mixture of isomers)"
  value.operator: "="
  pIC50: 7.54

----------
tested.system: NR1/NR2B (Homo sapiens (Human), UniProt Q05586+Q13224)
protocol.notes: Cell assay: FDSS Ca2+ influx inhibition in HEK293 cells expressing NR1/NR2B
study.conditions: Binned Activity, HEK293 cells expressing NR1/NR2B, Ca2+ influx; binned NR2B NAM IC50

- molecule: "COc1cccc([C@]2(O)C[C@H]3CN(CC(O)c4cccc(C(F)(F)F)c4)C[C@H]3C2)c1 (mixture of isomers)"
  tested.system: "NR1/NR2B (Homo sapiens (Human), UniProt Q05586+Q13224)"
  IC50: "> 10 µM"
- molecule: "O=C(CN1C[C@@H]2C[C@@](O)(Cc3ccncc3)C[C@@H]2C1)c1ccc(O)cc1"
  tested.system: "NR1/NR2B (Homo sapiens (Human), UniProt Q05586+Q13224)"
  IC50: "1 to 10 µM"
- molecule: "O=C(CN1C[C@@H]2C[C@@](F)(Cc3ccccc3)C[C@@H]2C1)c1ccc(O)cc1"
  tested.system: "NR1/NR2B (Homo sapiens (Human), UniProt Q05586+Q13224)"
  IC50: "< 0.1 µM"
- molecule: "Oc1ccc([C@H](O)CN2C[C@@H]3C[C@@](O)(Cc4ccccc4)C[C@@H]3C2)cc1"
  tested.system: "NR1/NR2B (Homo sapiens (Human), UniProt Q05586+Q13224)"
  IC50: "< 0.1 µM"
- molecule: "O=C(CN1C[C@@H]2C[C@@](O)(Cc3ccc(F)cc3F)C[C@@H]2C1)c1ccc(O)cc1"
  tested.system: "NR1/NR2B (Homo sapiens (Human), UniProt Q05586+Q13224)"
  IC50: "< 0.1 µM"
- molecule: "COc1cccc([C@]2(O)C[C@H]3CN(C(=O)Nc4ccc(Cl)c(C(F)(F)F)c4)C[C@H]3C2)c1"
  tested.system: "NR1/NR2B (Homo sapiens (Human), UniProt Q05586+Q13224)"
  IC50: "> 10 µM"
- molecule: "Oc1ccc(C(O)CN2C[C@@H]3C[C@@](O)(CC4CC4)C[C@@H]3C2)cc1 (mixture of isomers)"
  tested.system: "NR1/NR2B (Homo sapiens (Human), UniProt Q05586+Q13224)"
  IC50: "> 10 µM"
- molecule: "O=C(CN1C[C@@H]2C[C@@](O)(Cc3ccccc3)C[C@@H]2C1)c1cccc(-c2ccccc2)c1"
  tested.system: "NR1/NR2B (Homo sapiens (Human), UniProt Q05586+Q13224)"
  IC50: "> 10 µM"
- molecule: "O=C(CN1C[C@H]2C[C@H](Cc3ccccc3)C[C@H]2C1)c1ccc(O)cc1"
  tested.system: "NR1/NR2B (Homo sapiens (Human), UniProt Q05586+Q13224)"
  IC50: "< 0.1 µM"
- molecule: "OC(CN1C[C@@H]2C[C@@](O)(Cc3ccccc3)C[C@@H]2C1)c1cnc(OCc2ccccc2)cn1 (mixture of isomers)"
  tested.system: "NR1/NR2B (Homo sapiens (Human), UniProt Q05586+Q13224)"
  IC50: "> 10 µM"
- molecule: "Cc1ccc(C[C@]2(O)C[C@H]3CN(CC(=O)c4ccc(O)cc4)C[C@H]3C2)cc1"
  tested.system: "NR1/NR2B (Homo sapiens (Human), UniProt Q05586+Q13224)"
  IC50: "< 0.1 µM"
- molecule: "Oc1ccc(C(O)CN2C[C@@H]3C[C@@](O)(Cc4ccc(F)cc4F)C[C@@H]3C2)nc1 (mixture of isomers)"
  tested.system: "NR1/NR2B (Homo sapiens (Human), UniProt Q05586+Q13224)"
  IC50: "< 0.1 µM"
- molecule: "O=C(Nc1ccc(F)cc1)N1C[C@H]2C[C@@H](c3ccccc3)C[C@H]2C1"
  tested.system: "NR1/NR2B (Homo sapiens (Human), UniProt Q05586+Q13224)"
  IC50: "> 10 µM"
- molecule: "O=C(CN1C[C@@H]2C[C@@](O)(Cc3ccc(F)cc3)C[C@@H]2C1)c1ccc(O)cc1"
  tested.system: "NR1/NR2B (Homo sapiens (Human), UniProt Q05586+Q13224)"
  IC50: "< 0.1 µM"
- molecule: "OC(CN1C[C@@H]2C[C@@](O)(Cc3ccccc3)C[C@@H]2C1)c1ccc(Cl)cc1Cl (mixture of isomers)"
  tested.system: "NR1/NR2B (Homo sapiens (Human), UniProt Q05586+Q13224)"
  IC50: "> 10 µM"
- molecule: "CC(C)(O)c1ccc(C(O)CN2C[C@@H]3C[C@@](O)(c4ccccc4)C[C@@H]3C2)cc1 (mixture of isomers)"
  tested.system: "NR1/NR2B (Homo sapiens (Human), UniProt Q05586+Q13224)"
  IC50: "> 10 µM"
- molecule: "O=C(CN1C[C@@H]2C[C@@](O)(Cc3ccccc3)C[C@@H]2C1)c1ccc(-c2ccccc2)cc1"
  tested.system: "NR1/NR2B (Homo sapiens (Human), UniProt Q05586+Q13224)"
  IC50: "> 10 µM"

----------
tested.system: NR1/NR2B (Homo sapiens (Human), UniProt Q05586+Q13224)
protocol.notes: Cell assay: FDSS Ca2+ influx inhibition in HEK293 cells expressing NR1/NR2B
study.conditions: NR2B NAM IC50, HEK293 cells expressing NR1/NR2B, Ca2+ influx

- molecule: "COc1cccc(C(O)CN2C[C@@H]3C[C@@](O)(c4cccc(OC)c4)C[C@@H]3C2)c1 (mixture of isomers)"
  IC50: "≥ 10 µM"
- molecule: "OC(CN1C[C@@H]2C[C@@](O)(c3ccccc3)C[C@@H]2C1)c1cccc(F)c1 (mixture of isomers)"
  IC50: "≥ 10 µM"
- molecule: "OC(CN1C[C@H]2C[C@@H](c3ccccc3)C[C@H]2C1)c1cccc(C(F)(F)F)c1 (mixture of isomers)"
  IC50: "≥ 10 µM"
- molecule: "CC(C)(O)c1ccc(C(O)CN2C[C@@H]3C[C@@](O)(Cc4ccccc4)C[C@@H]3C2)cc1 (mixture of isomers)"
  IC50: "≥ 10 µM"

----------
tested.system: NR1/NR2B (Homo sapiens (Human))
protocol.notes: Cell assay: FDSS Ca2+ influx inhibition in HEK293 cells expressing NR1/NR2B;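 note: Fluo-8 Ca2+ signal read on Hamamatsu FDSS 6000 after glutamate, glycine and Ca2+ challenge following 10 min compound preincubation, end/baseline fluorescence ratio compared with MK801 control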
study.conditions: read-out: NR2B NAM IC50; HEK293 cells expressing NR1/NR2B, Ca2+ influx
pIC50: −log10 of the molar value.

- compound: "COc1ccc(C)cc1NC(=O)N1C[C@@H]2C[C@@](O)(Cc3ccccc3)C[C@@H]2C1"
  pIC50: 5.00
- compound: "CC(=O)Nc1ccc(C(=O)CN2C[C@@H]3C[C@@](O)(Cc4ccccc4)C[C@@H]3C2)cn1"
  pIC50: 5.00
- compound: "O=C(CN1C[C@@H]2C[C@@](O)(Cc3ccccc3)C[C@@H]2C1)c1ccc(-c2cccnc2)cc1"
  pIC50: 5.00
- compound: "O=C(CN1C[C@@H]2C[C@@](O)(Cc3ccccc3F)C[C@@H]2C1)c1ccc(O)cc1"
  pIC50: 7.56
- compound: "COc1cccc(NC(=O)N2C[C@@H]3C[C@@](O)(c4cccc(OC)c4)C[C@@H]3C2)c1"
  pIC50: 5.00
- compound: "O=C(CN1CC2CC(CCc3ccccc3)CC2C1)c1ccc(O)cc1 (stereo not drawn)"
  pIC50: 6.37
- compound: "O=C(Nc1cccc(C(F)(F)F)c1)N1C[C@@H]2C[C@@](O)(c3ccccc3)C[C@@H]2C1"
  pIC50: 5.00
- compound: "O[C@@]1(c2ccc(F)cc2)C[C@H]2CN(c3ccccn3)C[C@H]2C1"
  pIC50: 5.00
- compound: "Cc1ccc(NC(=O)N2C[C@@H]3C[C@@](O)(Cc4ccccc4)C[C@@H]3C2)cc1"
  pIC50: 5.00
- compound: "Oc1ccc([C@H](O)CN2C[C@@H]3C[C@](F)(Cc4ccccc4)C[C@@H]3C2)cc1"
  pIC50: 6.49
- compound: "CO[C@@]1(Cc2ccccc2)C[C@H]2CN(CC(=O)c3ccc(O)c(F)c3)C[C@H]2C1"
  pIC50: 6.88
- compound: "O=C(CN1C[C@@H]2C[C@@](O)(Cc3ccccc3)C[C@@H]2C1)c1ccc(Cl)nc1"
  pIC50: 5.00
